- target-entity: T1, recombinant human CD47-Fc protein (R&D Systems, USA) (human, UniProt Q08722 19-139)
- T1 construct: Bought from R&D Systems; also called CD47-Fc fusion protein; recombinant CD47; not shown: Fc part of the bought fusion
- T1 sequence (Q08722 19-139 limits assumed): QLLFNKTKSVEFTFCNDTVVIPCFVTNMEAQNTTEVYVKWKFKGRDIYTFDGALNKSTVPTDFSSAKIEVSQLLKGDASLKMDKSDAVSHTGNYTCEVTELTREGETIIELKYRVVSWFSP
- assay-info: titration ELISA on coated CD47-Fc
measured-property: EC50 (nM)

binder | measured-property | value-observed
BrP1F11 (IgG4-reformatted anti-CD47 antibody) (antibody, V domains shown, Full-length human IgG4, expressed in HEK293 cells; also called BrP1F11-G4) VH: QVQLVQSGAEVKKPGASVKISCKASGYTFTTYHIHWVRQAPGQGLEWMGVINSNAGNTGYAQNFQDRVTMTRDTSTSTVYMELRSLKSDDTAVYYCAKDPGMGWYMHHWGQGTLVTVSS VL: NFMLTQPQSVSGSPGETVTISCTGSGGPIASNYVQWYQQRPGSVPTTVIYEDTKRPSGVPDRFSGSIDSSSNSASLTISGLKTEDEADYYCQSYESRNYVFGTGTKVSVLS | EC50 | 1.21
CwP2F8 (IgG4-reformatted anti-CD47 antibody) (antibody, V domains shown, Full-length human IgG4, expressed in HEK293 cells) VH: QVQLVQSGAEVKKPGSSVKVSCKASGGTFSSYAISWVRQAPGQGLEWMGRIIPILGIANYAQKFQGRVTITADKSTSTAYMELSSLRSEDTAVYYCARSLRWLHRVFDYWGQGTTVTVSS VL: QSVLTQPASVSGSPGQSITISCTGTSSDVGGYNYVSWYQQHPGKAPKLIIFDVINRPSGVSSRFSGSKSGTSATLVITGLQTGDEADYYCGTWDNSLRAYVFGSGTNVTALG | EC50 | 0.326
CwP2F12 (IgG4-reformatted anti-CD47 antibody) (antibody, V domains shown, Full-length human IgG4, expressed in HEK293 cells) VH: QVQLVQSGAEVKKPGASVRLSCKASGYTFSSYYMHWVRQAPGQGLVWMGTSIPTAASGSYAQKFQGRVTMTRDTSTTTVYMELSSLRSEDTAVYYCARGGRGGFDYWGQGTPVTVSS VL: QPGLTQPPSVSKGLRRTATLTCTGNSNNVGNQGAVWLQQHQGHPPKLLSYRNNNRPSGISERFSASRSANTASLTITGLQPEDEADYYCSAWDSSLSGWVFGGGTKLTVLG | EC50 | 0.441
BrP1F3 (IgG4-reformatted anti-CD47 antibody) (antibody, V domains shown, Full-length human IgG4, expressed in HEK293 cells) VH: QVQLVQSGAEVKKPGASVKVSCKASGYTFTSYYMHWVRQAPGQGLEWMGIINPSGGSTSYAQKFQGRVTMTRDTSTSTVYMELSSLRSEDTAVYYCARGGTLGMDVWGQGTTVTVSS VL: SSELTQDPAVSVALGQTVRITCQGDSLRSYYASWYQQKPGQAPVLVIYGKNNRPSGIPDRFSGSSSGNTASLTITGAQAEDEADYYCNSRDSSGNHYVFGTGTKVTVLG | EC50 | 10.1
